Target: Sphingosine 1-phosphate receptor 1 (Homo sapiens, UniProt P21453)
Sequence (P21453 whole entry): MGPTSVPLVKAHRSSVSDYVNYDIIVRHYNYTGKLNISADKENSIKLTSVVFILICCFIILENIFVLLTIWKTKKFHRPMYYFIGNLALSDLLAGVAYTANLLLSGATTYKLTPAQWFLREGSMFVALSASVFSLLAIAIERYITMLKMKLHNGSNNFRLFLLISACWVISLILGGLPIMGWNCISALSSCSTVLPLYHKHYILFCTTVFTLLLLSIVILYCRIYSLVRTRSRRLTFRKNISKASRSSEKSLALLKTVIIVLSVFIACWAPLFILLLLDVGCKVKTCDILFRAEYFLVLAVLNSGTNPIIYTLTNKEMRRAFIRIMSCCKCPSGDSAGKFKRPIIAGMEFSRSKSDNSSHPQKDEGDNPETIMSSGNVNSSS
Assay: potentiators of S1P1 agonist response, dose response, cell-based, potentiator mode, 60K MLSMR set (AID 466)
Binary call on EC50 with cut-off 7 µM: strictly below means Condition met, and equality or higher means Condition not met.

Query string: Determine whether this compound shows EC50 lower than 7 µM (ties excluded): Cc1ccc(-n2ncc3c(N4CCCC(C)C4)ncnc32)c(C)c1 (stereo not given)
Result string: Condition not met

Query string: Same again, this time with Cc1cc(NC(=O)c2oc3ccccc3c2C)ccc1-n1cnnn1
Result string: Condition met

Query string: Same again, this time with CCOC(=O)Nc1ccc2c(c1)N(C(=O)CCN(C)C)c1ccccc1S2
Result string: Condition not met

Query string: Same again, this time with c1ccc2c(c1)oc1c(N3CCN(Cc4ccc5c(c4)OCO5)CC3)ncnc12
Result string: Condition met

Query string: Same again, this time with CC(C)(C)OC(=O)N[C@@H](Cc1ccccc1)c1nnc(S(=O)(=O)Cc2cccc(F)c2)o1
Result string: Condition not met

Query string: Same again, this time with Cc1cccc(N2CCN(C(=O)CSCc3c(C)noc3C)CC2)c1C
Result string: Condition met

Query string: Same again, this time with Cc1cc(C(=O)CSc2nnc(-c3cccnc3)n2-c2ccccc2F)c(C)n1C
Result string: Condition met

Query string: Same again, this time with CCOC(=O)C1CCN(c2ncnc3c2oc2ccc(Cl)cc23)CC1
Result string: Condition not met

Query string: Same again, this time with CCCCn1nnnc1SCC(=O)c1ccc(C)c(C)c1
Result string: Condition met

Query string: Same again, this time with Fc1ccc(COc2ccc(C=Nn3cnnc3)cc2)cc1
Result string: Condition met

###

Biological target: UniProtKB P21453
Assay: potentiators of S1P1 agonist response, dose response, cell-based, potentiator mode, 60K MLSMR set (AID 466)
Binary call on EC50 with cut-off 5 µM: strictly below means condition met, and equality or higher means condition not met.

Query string: Determine whether this compound shows EC50 lower than 5 µM (ties excluded): COC(=O)CS(=O)(=O)c1nnc([C@H](Cc2ccccc2)NC(=O)OC(C)(C)C)o1
Result string: condition not met

Query string: Same again, this time with CCCCNc1cc(C)nc(NCc2ccccc2)n1
Result string: condition not met

Query string: Same again, this time with O=C(c1ccc(Cl)s1)N1CCN(c2nc3ccccc3s2)CC1
Result string: condition not met

Query string: Same again, this time with Cn1c(C(=O)N2CCc3ccccc3C2)cc2oc3ccccc3c21
Result string: condition not met

Query string: Same again, this time with Clc1ccc(CSc2nnc(-c3ccncc3)o2)cc1
Result string: condition met

Query string: Same again, this time with Cc1oc(-c2ccccc2)nc1Cn1cccc1C1=NC(c2ccccc2)CO1 (stereo not given)
Result string: condition met

Query string: Same again, this time with CN(C)CC(C(=O)c1ccccc1)c1ccccc1 (stereo not given)
Result string: condition not met

Query string: Same again, this time with CC1CCCC(C)N1C(=O)CN1CCN(c2nc(-c3ccc(F)cc3)cs2)CC1 (stereo not given)
Result string: condition not met

Query string: Same again, this time with CN(C)S(=O)(=O)c1ccc(C(=O)Nc2nc(-c3cccs3)cs2)cc1
Result string: condition not met

Query string: Same again, this time with COC(=O)c1cc(CSc2nnc(-c3ccccc3)c(-c3ccccc3)n2)oc1C
Result string: condition met

###

Would you mind telling me the reported EC50 of each entry?
Biological target: Sphingosine 1-phosphate receptor 1 (Homo sapiens, UniProt P21453)
Experiment: potentiators of S1P1 agonist response, dose response, cell-based, potentiator mode, 60K MLSMR set (AID 466)
Conditions: inactive by the depositor's call
Lab book: enter the figure in µM, no units written.

Query string: Please look up its EC50: CCC(C)c1ccc2oc(-c3ccc(NC(=O)c4nnc[nH]4)cc3)nc2c1 (stereo not drawn)
Result string: 12.7

Query string: Same again, this time with Cc1nn(Cc2ccccc2)c(C)c1C(=O)OCC(=O)c1cc(C)n(C2CC2)c1C
Result string: 15.6

Query string: Same again, this time with CCC(C)OC(=O)c1[nH]c2c(c1C)C(=O)CC(c1ccc(N(C)C)cc1)C2 (stereo not drawn)
Result string: 18

Query string: Same again, this time with COc1ccc(-n2c(C)c(C(C)=O)c3cc(O)ccc32)cc1
Result string: 24.2

Query string: Same again, this time with O=C(CSc1ncnc2c1oc1ccccc12)N1CCCc2ccccc21
Result string: 10.8

Query string: Same again, this time with Nc1c(C(=O)NC2CCCC2)sc2nc(-c3cccs3)ccc12
Result string: 13.6

Query string: Same again, this time with COc1ccccc1-c1cc(C(=O)Nc2cc(C)nn2-c2ccccc2)no1
Result string: 57.7

Query string: Same again, this time with CC(=O)c1ccc(N2CCN(c3ccc(C(F)(F)F)cn3)CC2)cc1
Result string: 37

Query string: Same again, this time with CC(C)OCCCNc1ncnc2c1[nH]c1ccccc12
Result string: 13.2

Query string: Same again, this time with COc1ccc(Cc2nc(-c3ccc(-n4cccc4)cc3)no2)cc1OC
Result string: 13.4

Query string: Same again, this time with Cc1ccc(C)c(-n2nnnc2Sc2nnnn2-c2ccccc2)c1
Result string: 14.8

Query string: Same again, this time with COc1ccc(-c2nc(-c3cccc(C(F)(F)F)c3)no2)cc1OC
Result string: 18.8

Query string: Same again, this time with CCN(CC)C(=O)Oc1ccc2c(=O)c(-c3ccccc3)coc2c1
Result string: 27.2

Query string: Same again, this time with CCn1nc(-c2cccs2)nc2c(=O)n(C)c(=O)nc1-2
Result string: 31.8

Query string: Same again, this time with CCCOC(=O)c1[nH]c2c(c1C)C(=O)CC(c1cc(OC)c(OC)c(OC)c1)C2 (stereo not drawn)
Result string: 12.9

Query string: Same again, this time with Cc1cc(C)n(-c2nc3ccccc3c(=O)n2OCCOc2ccccc2)n1
Result string: 15

Query string: Same again, this time with CCCOc1ccc(-c2nnc(-c3ccncc3)o2)cc1
Result string: 66.5

Query string: Same again, this time with Cc1n[nH]c(C)c1N1C(=O)c2cccc3c(N4CCCCCC4)ccc(c23)C1=O
Result string: 12.5

Query string: Same again, this time with Cc1ccc(S(=O)(=O)n2nc(C)c(Br)c2C)c(C)c1C
Result string: 83.1

Query string: Same again, this time with COc1cccc(-c2cc(C(=O)Nc3ccccc3SC)no2)c1
Result string: 16

Query string: Same again, this time with Cc1ccc(S(=O)(=O)Nc2ccc3ncccc3c2)cc1
Result string: 10.7

Query string: Same again, this time with CCOC(=O)c1oc2ccc(S(=O)(=O)n3nc(-c4ccc(OC)cc4)cc3N)cc2c1C
Result string: 44.3

Query string: Same again, this time with COc1ccc(-n2c(C)cc(C(=O)COC(=O)Cn3cnc4ccccc43)c2C)cc1
Result string: 11.6

Query string: Same again, this time with Cc1ccc2[nH]c3c(NCc4ccco4)ncnc3c2c1
Result string: 10.8

Query string: Same again, this time with Cc1ccc(-c2nc(COC(=O)c3c(C)noc3C)cs2)cc1
Result string: 27.9

Query string: Same again, this time with COc1ccc(S(=O)(=O)Cc2ccc(C(=O)N3CCN(c4ccc(Cl)cc4)CC3)o2)cc1
Result string: 14.7

Query string: Same again, this time with COC(=O)c1ccc(CSc2nc3ccccc3c(=O)n2Cc2ccco2)o1
Result string: 40.4

Query string: Same again, this time with CCN(CC)S(=O)(=O)c1cccc(S(=O)(=O)c2cccc(S(=O)(=O)N(CC)CC)c2)c1
Result string: 23.4
